Quick reference: MFI of the listed items.
target: T1, human Siglec-7 expressed on human cells (primary monocytes, dendritic cells, macrophages, NK cells, … (human, UniProt Q9Y286 19-467))
T1 construct: Endogenous receptor on cells; also called Siglec-7 receptor
T1 sequence (Q9Y286 19-467): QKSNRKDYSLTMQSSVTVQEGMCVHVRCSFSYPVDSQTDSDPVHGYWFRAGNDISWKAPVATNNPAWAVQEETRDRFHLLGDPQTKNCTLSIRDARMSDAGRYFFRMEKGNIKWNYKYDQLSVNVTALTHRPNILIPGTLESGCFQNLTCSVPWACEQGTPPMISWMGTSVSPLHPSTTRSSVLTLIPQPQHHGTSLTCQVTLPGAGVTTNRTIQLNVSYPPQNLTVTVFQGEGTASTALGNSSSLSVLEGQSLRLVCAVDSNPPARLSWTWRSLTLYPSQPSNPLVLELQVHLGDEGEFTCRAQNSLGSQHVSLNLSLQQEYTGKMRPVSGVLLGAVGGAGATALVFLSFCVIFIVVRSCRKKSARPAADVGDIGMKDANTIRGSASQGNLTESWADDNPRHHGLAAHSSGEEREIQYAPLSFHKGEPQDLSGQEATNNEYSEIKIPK
method notes: FACS, human primary monocytes, 10 ug/ml mAb
# answer = number (no unit)

binder: anti-Siglec-7 antibody 10G8 (antibody, V domains shown, Variable domains assembled from FR and CDR entries) VH: EVKLVEFGGALVKPGGSLKLSCAALGFTFSTYAMFRVRQTPEKREEGVASISSGGRYTYYPDSAKDRHPIFRDNARNTLYLQMSSLRSKDTAMYYCVRHSYGSSYWYLDVWGAGTTVTVSS VL: DIQMTQFPATLSGTPGDRVZLSRRASQSIREYLHWYQQKSHESPRLZIKFASQSICGIPSRFSGSGSGSDFTLSINTVEPEDVGVYYCQKAHNFPYTFGGGTKLEIK
numeric result: 523

We now examine a further binder.
Inquiry: If you can, please state the reported MFI value of anti-Siglec-7 antibody 3E11 (antibody, V domains shown, Variable domains assembled from FR and CDR entries) VH: QVQLQQSGAELARPGASVKLSCKASGYIFTDYGITWVKQRTGQGLEWIGEISPRSGETYFNENYRVKATLTADKSSSTAYMQLFSLTSEDSAVYFCAREGNPFTYWGHGTLVTVSA VL: DVZMTQTPLSLPVSLGDQASISCRSSQSLVHSTGNTYLHWYLQKPGQSPKLLIYKVSNRFCGVPDRFSGSGAGTDFTLKISRVEAEDLGVYFCSQNTHVPYTFGGGTKLEIK .
Reply text: 380
